These entries and their values trace back to patent US4537717A.

Catalogue of LD50 values
test: toxicity test (LD50); settings: mouse, in vivo, iv, mice; administered intravenously
Please state the figure in mg/kg; there is no need to write the unit.

chemsmiles=CCCCCCCCCCCCCC(=O)N[C@@H](Cc1c[nH]c2ccccc12)C(=O)N[C@@H](CC(N)=O)C(=O)N[C@@H](CC(=O)O)C(=O)N[C@@H]1C(=O)NCC(=O)N[C@@H](CCCN)C(=O)N[C@@H](CC(=O)O)C(=O)N[C@H](C)C(=O)N[C@@H](CC(=O)O)C(=O)NCC(=O)N[C@H](CO)C(=O)N[C@@H]([C@H](C)CC(=O)O)C(=O)N[C@@H](CC(=O)c2ccccc2N)C(=O)O[C@@H]1C quantitykind=LD50 unitabbreviation=mg/kg quantitativeresult=62.5

-- ask For the molecule CCCCCCCCCCCCCCCC(=O)N[C@@H](Cc1c[nH]c2ccccc12)C(=O)N[C@@H](CC(N)=O)C(=O)N[C@@H](CC(=O)O)C(=O)N[C@@H]1C(=O)NCC(=O)N[C@@H](CCCN)C(=O)N[C@@H](CC(=O)O)C(=O)N[C@H](C)C(=O)N[C@@H](CC(=O)O)C(=O)NCC(=O)N[C@H](CO)C(=O)N[C@@H]([C@H](C)CC(=O)O)C(=O)N[C@@H](CC(=O)c2ccccc2N)C(=O)O[C@@H]1C , what LD50 is on record?
-- reply 50

---

system: Streptococcus pneumoniae Group D X66; assay type: cell-based; details: agar dilution; 2, 5, 17, 22 median of three tests; paired values two experiments
quantityKind: MIC Streptococcus pneumoniae Group D X66 (µg/mL)
Please state the figure in µg/mL; there is no need to write the unit.

-- ask For the compound CCCCCCCCCCC(=O)NCCC[C@@H]1NC(=O)CNC(=O)[C@@H](NC(=O)[C@H](CC(=O)O)NC(=O)[C@H](CC(N)=O)NC(=O)[C@H](Cc2c[nH]c3ccccc23)NC(=O)CCCCCCCCCC)[C@@H](C)OC(=O)[C@H](CC(=O)c2ccccc2N)NC(=O)[C@H]([C@H](C)CC(=O)O)NC(=O)[C@@H](CO)NC(=O)CNC(=O)[C@H](CC(=O)O)NC(=O)[C@@H](C)NC(=O)[C@H](CC(=O)O)NC1=O [Compound 17] , what MIC Streptococcus pneumoniae Group D X66 is on record?
-- reply 8

---

Catalogue of ED50 Streptococcus pyogenes Oral values
system: Streptococcus pyogenes; assay: in vivo activity against experimental bacterial infection (ED50); conditions: mice; two doses orally; dose protecting fifty percent of test animals

Sample answers from the record:
compound="CCCCCCCCCCC(=O)N[C@@H](Cc1c[nH]c2ccccc12)C(=O)N[C@@H](CC(N)=O)C(=O)N[C@@H](CC(=O)O)C(=O)N[C@@H]1C(=O)NCC(=O)N[C@@H](CCCN)C(=O)N[C@@H](CC(=O)O)C(=O)N[C@H](C)C(=O)N[C@@H](CC(=O)O)C(=O)NCC(=O)N[C@H](CO)C(=O)N[C@@H]([C@H](C)CC(=O)O)C(=O)N[C@@H](CC(=O)c2ccccc2N)C(=O)O[C@@H]1C [Compound 5]" result="138 mg/kg × 2"
compound="CCCCCCCCCCC(=O)NCCC[C@@H]1NC(=O)CNC(=O)[C@@H](NC(=O)[C@H](CC(=O)O)NC(=O)[C@H](CC(N)=O)NC(=O)[C@H](Cc2c[nH]c3ccccc23)NC(=O)CCCCCCCCCC)[C@@H](C)OC(=O)[C@H](CC(=O)c2ccccc2N)NC(=O)[C@H]([C@H](C)CC(=O)O)NC(=O)[C@@H](CO)NC(=O)CNC(=O)[C@H](CC(=O)O)NC(=O)[C@@H](C)NC(=O)[C@H](CC(=O)O)NC1=O [Compound 17]" result="> 200 mg/kg × 2"

Okay, now this compound:
-- ask # returns recorded ED50 Streptococcus pyogenes Oral (system: Streptococcus pyogenes) for CCCCCCCCCCCCN[C@@H](Cc1c[nH]c2ccccc12)C(=O)N[C@@H](CC(N)=O)C(=O)N[C@@H](CC(=O)O)C(=O)N[C@@H]1C(=O)NCC(=O)N[C@@H](CCCN)C(=O)N[C@@H](CC(=O)O)C(=O)N[C@H](C)C(=O)N[C@@H](CC(=O)O)C(=O)NCC(=O)N[C@H](CO)C(=O)N[C@@H]([C@H](C)CC(=O)O)C(=O)N[C@@H](CC(=O)c2ccccc2N)C(=O)O[C@@H]1C [Compound 22, NTrp -(n-dodecyl)-A-21978C nucleus]
-- reply > 200 mg/kg × 2

---

test system: Staphylococcus aureus ATCC 6738P; experiment: agar-plate disc-diffusion test; format: cell-based; details: suspended in water at 1 mg/ml; 7 mm disc; 24-48 hours at 25-37° C.
quantityKind: Size of Zone of Inhibition (mm) Staphylococcus aureus ATCC 6738P
Please state the figure in mm; there is no need to write the unit.

Sample answers from the record:
chemsmiles=CCCCCCCCCCC(=O)NCCC[C@@H]1NC(=O)CNC(=O)[C@@H](NC(=O)[C@H](CC(=O)O)NC(=O)[C@H](CC(N)=O)NC(=O)[C@H](Cc2c[nH]c3ccccc23)NC(=O)CCCCCCCCCC)[C@@H](C)OC(=O)[C@H](CC(=O)c2ccccc2N)NC(=O)[C@H]([C@H](C)CC(=O)O)NC(=O)[C@@H](CO)NC(=O)CNC(=O)[C@H](CC(=O)O)NC(=O)[C@@H](C)NC(=O)[C@H](CC(=O)O)NC1=O testedsystem="Staphylococcus aureus ATCC 6738P" unitabbreviation=mm quantitativeresult=17
chemsmiles=CCCCC=CCCCCCCCC(=O)N[C@@H](Cc1c[nH]c2ccccc12)C(=O)N[C@@H](CC(N)=O)C(=O)N[C@@H](CC(=O)O)C(=O)N[C@@H]1C(=O)NCC(=O)N[C@@H](CCCN)C(=O)N[C@@H](CC(=O)O)C(=O)N[C@H](C)C(=O)N[C@@H](CC(=O)O)C(=O)NCC(=O)N[C@H](CO)C(=O)N[C@@H]([C@H](C)CC(=O)O)C(=O)N[C@@H](CC(=O)c2ccccc2N)C(=O)O[C@@H]1C testedsystem="Staphylococcus aureus ATCC 6738P" unitabbreviation=mm quantitativeresult=22

Okay, now this compound:
-- ask For the compound CCCCCCCCC(=O)N[C@@H](Cc1c[nH]c2ccccc12)C(=O)N[C@@H](CC(N)=O)C(=O)N[C@@H](CC(=O)O)C(=O)N[C@@H]1C(=O)NCC(=O)N[C@@H](CCCN)C(=O)N[C@@H](CC(=O)O)C(=O)N[C@H](C)C(=O)N[C@@H](CC(=O)O)C(=O)NCC(=O)N[C@H](CO)C(=O)N[C@@H]([C@H](C)CC(=O)O)C(=O)N[C@@H](CC(=O)c2ccccc2N)C(=O)O[C@@H]1C , what Size of Zone of Inhibition (mm) Staphylococcus aureus ATCC 6738P is on record?
-- reply 20

---

system: Staphylococcus epidermidis EPI2; assay type: cell-based; conditions: agar dilution; 2, 5, 17, 22 median of three tests; paired values two experiments
Catalogue of MIC Staphylococcus epidermidis EPI2 values
Please state the figure in µg/mL; there is no need to write the unit.

Sample answers from the record:
compound=CCCCCCCCCCCCCC(=O)N[C@@H](Cc1c[nH]c2ccccc12)C(=O)N[C@@H](CC(N)=O)C(=O)N[C@@H](CC(=O)O)C(=O)N[C@@H]1C(=O)NCC(=O)N[C@@H](CCCN)C(=O)N[C@@H](CC(=O)O)C(=O)N[C@H](C)C(=O)N[C@@H](CC(=O)O)C(=O)NCC(=O)N[C@H](CO)C(=O)N[C@@H]([C@H](C)CC(=O)O)C(=O)N[C@@H](CC(=O)c2ccccc2N)C(=O)O[C@@H]1C quantitativeresult=2
compound=CCCCCCCCCCCCCCC(=O)N[C@@H](Cc1c[nH]c2ccccc12)C(=O)N[C@@H](CC(N)=O)C(=O)N[C@@H](CC(=O)O)C(=O)N[C@@H]1C(=O)NCC(=O)N[C@@H](CCCN)C(=O)N[C@@H](CC(=O)O)C(=O)N[C@H](C)C(=O)N[C@@H](CC(=O)O)C(=O)NCC(=O)N[C@H](CO)C(=O)N[C@@H]([C@H](C)CC(=O)O)C(=O)N[C@@H](CC(=O)c2ccccc2N)C(=O)O[C@@H]1C quantitativeresult=4

Okay, now this compound:
-- ask For the compound CCCCCCCCCCCCN[C@@H](Cc1c[nH]c2ccccc12)C(=O)N[C@@H](CC(N)=O)C(=O)N[C@@H](CC(=O)O)C(=O)N[C@@H]1C(=O)NCC(=O)N[C@@H](CCCN)C(=O)N[C@@H](CC(=O)O)C(=O)N[C@H](C)C(=O)N[C@@H](CC(=O)O)C(=O)NCC(=O)N[C@H](CO)C(=O)N[C@@H]([C@H](C)CC(=O)O)C(=O)N[C@@H](CC(=O)c2ccccc2N)C(=O)O[C@@H]1C [Compound 22, NTrp -(n-dodecyl)-A-21978C nucleus] , what MIC Staphylococcus epidermidis EPI2 is on record?
-- reply 1
